The values you see were collected from paper PMC10574475.

ASSAY EXPLANATION: Brain tissue distribution after intravenous administration
Type: in vivo, SD rats
ASSAY SETUP: male, Sprague-Dawley (SD); brain tissue, rat, 3.2 mg/kg iv
MEASURE NAME: half-life (min)
Write it as a number; the unit min goes unstated.

Exercise: Could you please provide reported half-life for `CCCC1(CCC)NC(=O)c2cc(NC(=O)c3cc4cc(Cl)ccc4[nH]3)ccc2O1` ? Thanks!
Solution: 70.8

* * *

ASSAY EXPLANATION: Plasma pharmacokinetics after intravenous administration (UHPLC–MS/MS)
Format: in vivo, SD rats
ASSAY SETUP: both sexes, SD; rat plasma, 1.6 mg/kg iv
MEASURE NAME: AUC(0-t) (ng·h/mL)
Write it as a number; the unit ng·h/mL goes unstated.

Exercise: Could you please provide reported AUC(0-t) for `CCCC1(CCC)NC(=O)c2cc(NC(=O)c3cc4cc(Cl)ccc4[nH]3)ccc2O1` ? Thanks!
Solution: 1600

* * *

ASSAY EXPLANATION: Plasma pharmacokinetics after intravenous administration (UHPLC–MS/MS)
Format: in vivo, SD rats
ASSAY SETUP: both sexes, SD; rat plasma, 0.8 mg/kg iv
Procedure: 50 μL of the plasma to be tested was aspirated precisely and placed in a 1.5 mL centrifuge tube. Then 5 μL of internal standard working solution and 150 μL of methanol were added sequentially to the centrifuge tube, and the tube was vortexed for 60 s and centrifuged at 6147× g for 10 min. Finally, 100 μL of supernatant was taken and added to the injection vial for quantitative analysis by UHPLC–MS/MS. Liquid chromatography conditions. […]
MEASURE NAME: Vd (L/kg)
Write it as a number; the unit L/kg goes unstated.

Exercise: Could you please provide reported Vd for CCCC1(CCC)NC(=O)c2cc(NC(=O)c3cc4cc(Cl)ccc4[nH]3)ccc2O1 [compound 1] ? Thanks!
Solution: 6.43

* * *

ASSAY EXPLANATION: Brain tissue distribution after intravenous administration
Format: in vivo, SD rats
ASSAY SETUP: male, Sprague-Dawley (SD); brain tissue, rat, 3.2 mg/kg iv
Description: Brain tissue homogenate samples for analysis were prepared by adding 9 volumes of homogenate solution (MeOH/15 mMPBS (1: 2, v/v)) to one volume of brain homogenate and diluting it 10-fold. […] The data was processed using Origin 2021 to plot the drug concentration–time curve in plasma, and DAS 2.0 software was used to calculate the pharmacokinetic parameters by the […] statistical moment method, and the results of the experiments were expressed as mean ± standard deviation. […]
MEASURE NAME: MRT (h)
Write it as a number; the unit h goes unstated.

Exercise: Could you please provide reported MRT for `CCCC1(CCC)NC(=O)c2cc(NC(=O)c3cc4cc(Cl)ccc4[nH]3)ccc2O1` ? Thanks!
Solution: 1.65

* * *

ASSAY EXPLANATION: Brain tissue distribution after intravenous administration
Assay type: in vivo, SD rats
ASSAY SETUP: male, SD; plasma, rat, 3.2 mg/kg iv
MEASURE NAME: half-life (h)
Write it as a number; the unit h goes unstated.

Exercise: Could you please provide reported half-life for `CCCC1(CCC)NC(=O)c2cc(NC(=O)c3cc4cc(Cl)ccc4[nH]3)ccc2O1` ? Thanks!
Solution: 1.14

* * *

ASSAY EXPLANATION: Plasma pharmacokinetics after intravenous administration (UHPLC–MS/MS)
Assay type: in vivo, SD rats
ASSAY SETUP: both sexes, SD; rat plasma, 3.2 mg/kg iv
MEASURE NAME: AUC(0-t) (ng·h/mL)
Write it as a number; the unit ng·h/mL goes unstated.

Exercise: Could you please provide reported AUC(0-t) for CCCC1(CCC)NC(=O)c2cc(NC(=O)c3cc4cc(Cl)ccc4[nH]3)ccc2O1 [compound 1] ? Thanks!
Solution: 3630
